System: chondroitin 6-sulfotransferase
Assay: Transfer reaction of sulfate group (35SO4) to lactosamine oligosaccharides by purified sulfotransferase
Format: biochemical, chick
Settings: 0.025 μmol oligosaccharide acceptor, 25 pmol [35S]PAPS, 0.09 μg purified C6ST, 37° C., 60 minutes, pH 6.8
Method: Specifically, the transfer reaction of sulfate group (^35 SO4 was used as sulfate group in order to confirm sulfation) to various lactosamine oligosaccharides by using sulfotransferase was performed in accordance with the following method. […] A fraction (1 ml) was collected to measure the radioactivity. […]
Incorporation of 35S values by entry
Number only, in pmol/minute/μg protein; omit the unit.

Example results:
| COMPOUND | UNITS SYMBOL | OBSERVED RESULT |
| --- | --- | --- |
| CC(=O)N[C@H]1[C@H](O[C@H]2[C@@H](O)[C@@H](CO)O[C@@H](O[C@H]3[C@H](O)[C@@H](NC(C)=O)C(O)O[C@@H]3CO)[C@@H]2O)O[C@H](CO)[C@@H](O[C@@H]2O[C@H](CO)[C@H](O)[C@H](O)[C@H]2O)[C@@H]1O (stereo partly drawn) | pmol/minute/μg protein | 0.031 |
| CC(=O)NC1C(O)OC(CO)C(OC2OC(CO)C(O)C(OC3(C(=O)O)CC(O)C(NC(C)=O)C(C(O)C(O)CO)O3)C2O)C1O (stereo not drawn) | pmol/minute/μg protein | 0.022 |

q: Which Incorporation of 35S value belongs to CC(=O)NC1C(O)OC(COS(=O)(=O)O)C(OC2OC(COS(=O)(=O)O)C(O)C(OC3OC(COS(=O)(=O)O)C(OC4OC(CO)C(O)C(OC5(C(=O)O)CC(O)C(NC(C)=O)C(C(O)C(O)CO)O5)C4O)C(O)C3NC(C)=O)C2O)C1O (stereo not drawn) ?
a: 0.48

q: Fill blank: measured Incorporation of 35S of the compound CC(=O)N[C@H]1[C@H](O[C@H]2[C@@H](O)[C@@H](COS(=O)(=O)O)O[C@@H](O[C@H]3[C@H](O)[C@@H](NC(C)=O)C(O)O[C@@H]3COS(=O)(=O)O)[C@@H]2O)O[C@H](COS(=O)(=O)O)[C@@H](O[C@@H]2O[C@H](CO)[C@H](O)[C@H](O)[C@H]2O)[C@@H]1O (stereo partly drawn) is ____.
a: 0.29

q: Please look up its Incorporation of 35S: CC(=O)NC1C(O)OC(CO)C(OC2OC(CO)C(O)C(OC3OC(CO)C(OC4OC(CO)C(O)C(OC5(C(=O)O)CC(O)C(NC(C)=O)C(C(O)C(O)CO)O5)C4O)C(O)C3NC(C)=O)C2O)C1O (stereo not drawn)
a: 0.034

q: Incorporation of 35S lookup needed for CC(=O)N[C@H]1C(O)O[C@H](CO)[C@@H](O[C@@H]2O[C@H](CO)[C@H](O)[C@H](O)[C@H]2O)[C@@H]1O (stereo partly drawn) , thanks.
a: 0.012

###

system: chondroitin 6-sulfotransferase; experiment: Transfer reaction of sulfate group (35SO4) to lactosamine oligosaccharides by purified sulfotransferase; assay type: biochemical, chick; settings: acceptor for chondroitin 6-sulfotransferase; Superdex 30 gel filtration, 35S radioactivity
METRIC NAME: Incorporation (transfer) of sulfate group into the oligosaccharide, in words

| COMPOUND | TGT | OBSERVED RESULT |
| --- | --- | --- |
| CC(=O)N[C@H]1[C@H](O[C@H]2[C@@H](O)[C@@H](CO)O[C@@H](O[C@H]3[C@H](O)[C@@H](NC(C)=O)C(O)O[C@@H]3CO)[C@@H]2O)O[C@H](CO)[C@@H](O[C@@H]2O[C@H](CO)[C@H](O)[C@H](O)[C@H]2O)[C@@H]1O (stereo partly drawn) | chondroitin 6-sulfotransferase | observed |
| CC(=O)NC1C(O)OC(CO)C(OC2OC(CO)C(O)C(OC3(C(=O)O)CC(O)C(NC(C)=O)C(C(O)C(O)CO)O3)C2O)C1O (stereo not drawn) | chondroitin 6-sulfotransferase | observed |
| CC(=O)NC1C(O)OC(COS(=O)(=O)O)C(OC2OC(COS(=O)(=O)O)C(O)C(OC3OC(COS(=O)(=O)O)C(OC4OC(CO)C(O)C(OC5(C(=O)O)CC(O)C(NC(C)=O)C(C(O)C(O)CO)O5)C4O)C(O)C3NC(C)=O)C2O)C1O (stereo not drawn) | chondroitin 6-sulfotransferase | observed |
